Tested on: rat hepatocyte HDAC
Test: Fluor de Lys HDAC inhibition assay in crude rat hepatocyte lysates
Format: biochemical
Conditions: Fluor de Lys substrate, n = 3 or 4, read-out: Estimated IC50 values for tested compounds
# IC50 per record follows
Hi! Could you send only the number? It should be in nM, unit omitted.

Solved cases below.
Input smiles | Assay system | Result units | IC50
O=C(CCCCCNC(=O)c1ccc(Cl)cc1)NO | rat hepatocyte HDAC | nM | 84
O=C(CCCCCNC(=O)c1ccc(N2CCCC2)cc1)NO | rat hepatocyte HDAC | nM | 55
O=C(CCCCCNC(=O)c1ccc(N2CCOCC2)cc1)NO | rat hepatocyte HDAC | nM | 1010
O=C(CCCCCNC(=O)c1ccc(N2CCCCC2)cc1)NO | rat hepatocyte HDAC | nM | 500
O=C(CCCCNC(=O)c1cc2ccccc2[nH]1)NO | rat hepatocyte HDAC | nM | 313

Lab book: IC50 of O=C(CCCCCNC(=O)c1cc2ccccc2[nH]1)NO noted as 14

Lab book: IC50 of O=C(CCCCNC(=O)c1ccc(N2CCCCC2)cc1)NO noted as 2250

Lab book: IC50 of CN(C)c1ccc(C(=O)NCCCCCC(=O)NO)cc1 noted as 24

Lab book: IC50 of O=C(CCCCNC(=O)c1ccc(N2CCOCC2)cc1)NO noted as 4490

Lab book: IC50 of CN(C)c1ccc(C(=O)NCCCCC(=O)NO)cc1 noted as 301

Cited source: patent US20100278782A1
